The reported numbers originate from PubChem BioAssay AID2060513.

tested on: 299254-011-R-J1-PDC complex spheroids viability; test: Anticancer human tumor 299254-011-R-J1-PDC patient-derived melanoma cell line growth inhibition [GQUAD]; conditions: second compound 10 µM; first compound 0.00999 µM; hits give low values
PARAMETER MEASURED: viability, T/C (%)
Please respond with the number in % and leave the unit unwritten.

COMPOUND	OBSERVED
Cn1ncnc1[C@H]1c2n[nH]c(=O)c3cc(F)cc(c23)N[C@@H]1c1ccc(F)cc1 + Cc1[nH]c2ccc(F)cc2c1-c1nc2c3cccnc3c3ncccc3c2[nH]1	84
CCc1c2c(nc3ccc(O)cc13)-c1cc3c(c(=O)n1C2)COC(=O)[C@]3(O)CC + Cc1cnc(CNC(=O)c2c(=O)c3ccc(N4CCCN(C)CC4)nc3n3c2sc2ccccc23)cn1	34.8
Cc1[nH]c2ccccc2c1CCNCc1ccc(/C=C/C(=O)NO)cc1 + CN(C)c1ccc(Nc2c3ccc(NC(=O)CCN4CCCC4)cc3nc3cc(NC(=O)CCN4CCCC4)ccc23)cc1	98.8

query: # query: viability, T/C of entry CC[C@@]1(O)C(=O)OCc2c1cc1n(c2=O)Cc2cc3c(CN(C)C)c(O)ccc3nc2-1 + CN(C)c1ccc(Nc2c3ccc(NC(=O)CCN4CCCC4)cc3nc3cc(NC(=O)CCN4CCCC4)ccc23)cc1
result: 110

query: Give its viability, T/C value. Item: CCc1c2c(nc3ccc(O)cc13)-c1cc3c(c(=O)n1C2)COC(=O)[C@]3(O)CC + Cc1[nH]c2ccc(F)cc2c1-c1nc2c3cccnc3c3ncccc3c2[nH]1
result: 80.7

---

tested on: 299254-011-R-J1-PDC complex spheroids viability; assay: Anticancer human tumor 299254-011-R-J1-PDC cell line growth inhibition [GQUAD]; details: second compound 0.316 µM; first compound 1 µM; hits give low values;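 note: spheroids exposed to the agents for seven days before readout; percent viability relative to DMSO vehicle control wells = 100%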
PARAMETER MEASURED: viability, T/C

COMPOUND	viability, T/C
C#Cc1c(F)ccc2cc(O)cc(-c3ncc4c(N5CC6CCC(C5)N6)nc(OCC56CCCN5CC(F)C6)nc4c3F)c12 (stereo not given) + Cc1cnc(CNC(=O)c2c(=O)c3ccc(N4CCCN(C)CC4)nc3n3c2sc2ccccc23)cn1	87.1%
Nc1ccn(C2OC(CO)C(O)C2(F)F)c(=O)n1 (stereo not given) + CN(C)c1ccc(Nc2c3ccc(NC(=O)CCN4CCCC4)cc3nc3cc(NC(=O)CCN4CCCC4)ccc23)cc1	59.6%
CC1COCCN1c1cc(C2(S(C)(=N)=O)CC2)nc(-c2ccnc3[nH]ccc23)n1 (stereo not given) + CN(C)c1ccc(Nc2c3ccc(NC(=O)CCN4CCCC4)cc3nc3cc(NC(=O)CCN4CCCC4)ccc23)cc1	82.4%
Nc1ccn(C2OC(CO)C(O)C2(F)F)c(=O)n1 (stereo not given) + Cc1cnc(CNC(=O)c2c(=O)c3ccc(N4CCCN(C)CC4)nc3n3c2sc2ccccc23)cn1	56.1%

query: Could you share which viability, T/C value was measured for O=C(c1cc(Cc2n[nH]c(=O)c3ccccc23)ccc1F)N1CCN(C(=O)C2CC2)CC1 + Cc1cnc(CNC(=O)c2c(=O)c3ccc(N4CCCN(C)CC4)nc3n3c2sc2ccccc23)cn1 ?
result: 102%

---

Here the recorded viability, T/C is given for each entry.
test system: 299254-011-R-J1-PDC complex spheroids viability; assay: Anticancer human tumor 299254-011-R-J1-PDC cell line growth inhibition [GQUAD]; details: second compound 0.316 µM; first compound 1 µM; hits give low values;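 note: spheroids exposed to the agents for seven days before readout; percent viability relative to DMSO vehicle control wells = 100%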
Enter your answer as a number in %; do not include the unit.

// known answers, use as guide
COMPOUND	OBSERVED
Cc1cccc(N(C)C(=O)C2C(O)CCN2c2nc(C)cc(C(F)(F)F)c2C#N)c1 (stereo unspecified) + Cc1cnc(CNC(=O)c2c(=O)c3ccc(N4CCCN(C)CC4)nc3n3c2sc2ccccc23)cn1	93.8
COc1cccc2c1C(=O)c1c(O)c3c(c(O)c1C2=O)CC(O)(C(=O)CO)CC3OC1CC(N)C(O)C(C)O1 (stereo unspecified) + Cc1cnc(CNC(=O)c2c(=O)c3ccc(N4CCCN(C)CC4)nc3n3c2sc2ccccc23)cn1	78.9
C=CC(=O)N1CCN(c2nc(=O)n(-c3c(C)ccnc3C(C)C)c3nc(-c4c(O)cccc4F)c(F)cc23)C(C)C1 (stereo unspecified) + Cc1cnc(CNC(=O)c2c(=O)c3ccc(N4CCCN(C)CC4)nc3n3c2sc2ccccc23)cn1	67.4
CCCS(=O)(=O)Nc1ccc(F)c(C(=O)c2c[nH]c3ncc(-c4ccc(Cl)cc4)cc23)c1F + Cc1[nH]c2ccc(F)cc2c1-c1nc2c3cccnc3c3ncccc3c2[nH]1	108
CC(C)n1c(=O)n(C)c2cnc3cc(F)c(-c4ccc(OCCCN5CCCCC5)nc4)cc3c21 + CN(C)c1ccc(Nc2c3ccc(NC(=O)CCN4CCCC4)cc3nc3cc(NC(=O)CCN4CCCC4)ccc23)cc1	93.2
CC(=O)O[C@H]1C(=O)[C@@]2(C)[C@H]([C@H](OC(=O)c3ccccc3)[C@]3(O)C[C@H](OC(=O)[C@H](O)[C@@H](NC(=O)c4ccccc4)c4ccccc4)C(C)=C1C3(C)C)[C@]1(OC(C)=O)CO[C@@H]1C[C@@H]2O + Cc1[nH]c2ccc(F)cc2c1-c1nc2c3cccnc3c3ncccc3c2[nH]1	33.4

query: Can you look up viability, T/C on 299254-011-R-J1-PDC complex spheroids viability for Cc1cccc(N(C)C(=O)C2C(O)CCN2c2nc(C)cc(C(F)(F)F)c2C#N)c1 (stereo unspecified) + CN(C)c1ccc(Nc2c3ccc(NC(=O)CCN4CCCC4)cc3nc3cc(NC(=O)CCN4CCCC4)ccc23)cc1 ?
result: 103

---

Overview of reported viability, T/C across a group of compounds:
system: 299254-011-R-J1-PDC complex spheroids viability; assay: Anticancer human tumor 299254-011-R-J1-PDC cell line growth inhibition [GQUAD]; details: second compound 10 µM; first compound 0.1 µM; hits give low values;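 note: spheroids exposed to the agents for seven days before readout; percent viability relative to DMSO vehicle control wells = 100%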

Here is how some compounds turned out for viability, T/C.
COMPOUND	PARAMETER MEASURED	OBSERVED
COc1ccc([C@@H](O)c2cc(-c3ncnc4cc(N5CCOCC5)ccc34)c(F)cc2Cl)nn1 + Cc1cnc(CNC(=O)c2c(=O)c3ccc(N4CCCN(C)CC4)nc3n3c2sc2ccccc23)cn1	viability, T/C	24.3%
O=C(NO)c1cnc(N2CCN(S(=O)(=O)c3ccc4ccccc4c3)CC2)nc1 + Cc1[nH]c2ccc(F)cc2c1-c1nc2c3cccnc3c3ncccc3c2[nH]1	viability, T/C	103%
CC(C)(O)C1CCC(Nc2ccc3ncc(-c4cccc(C(F)(F)F)c4)n3n2)CC1 (stereo unspecified) + Cc1cnc(CNC(=O)c2c(=O)c3ccc(N4CCCN(C)CC4)nc3n3c2sc2ccccc23)cn1	viability, T/C	18%
COc1cc(C2c3cc4c(cc3C(OC3OC5COC(C)OC5C(O)C3O)C3COC(=O)C23)OCO4)cc(OC)c1O (stereo unspecified) + CN(C)c1ccc(Nc2c3ccc(NC(=O)CCN4CCCC4)cc3nc3cc(NC(=O)CCN4CCCC4)ccc23)cc1	viability, T/C	105%
O=c1[nH]cc(F)c(=O)[nH]1 + Cc1[nH]c2ccc(F)cc2c1-c1nc2c3cccnc3c3ncccc3c2[nH]1	viability, T/C	96.5%

query: Record request: viability, T/C value, item CC1COCCN1c1cc(C2(S(C)(=N)=O)CC2)nc(-c2ccnc3[nH]ccc23)n1 (stereo unspecified) + CN(C)c1ccc(Nc2c3ccc(NC(=O)CCN4CCCC4)cc3nc3cc(NC(=O)CCN4CCCC4)ccc23)cc1
result: 117%

query: Would you kindly share the measured viability, T/C for O=C(c1cc(Cc2n[nH]c(=O)c3ccccc23)ccc1F)N1CCN(C(=O)C2CC2)CC1 + CN(C)c1ccc(Nc2c3ccc(NC(=O)CCN4CCCC4)cc3nc3cc(NC(=O)CCN4CCCC4)ccc23)cc1 ?
result: 92.3%

query: # lookup: viability, T/C of CC(=O)O[C@H]1C(=O)[C@@]2(C)[C@H]([C@H](OC(=O)c3ccccc3)[C@]3(O)C[C@H](OC(=O)[C@H](O)[C@@H](NC(=O)c4ccccc4)c4ccccc4)C(C)=C1C3(C)C)[C@]1(OC(C)=O)CO[C@@H]1C[C@@H]2O + CN(C)c1ccc(Nc2c3ccc(NC(=O)CCN4CCCC4)cc3nc3cc(NC(=O)CCN4CCCC4)ccc23)cc1
result: 84.3%

query: Entry under review: COc1cccc2c1C(=O)c1c(O)c3c(c(O)c1C2=O)CC(O)(C(=O)CO)CC3OC1CC(N)C(O)C(C)O1 (stereo unspecified) + Cc1cnc(CNC(=O)c2c(=O)c3ccc(N4CCCN(C)CC4)nc3n3c2sc2ccccc23)cn1 . Reported viability, T/C?
result: 19.6%

query: Would you mind telling me what viability, T/C value was observed for O=c1[nH]cc(F)c(=O)[nH]1 + Cc1cnc(CNC(=O)c2c(=O)c3ccc(N4CCCN(C)CC4)nc3n3c2sc2ccccc23)cn1 ?
result: 16.9%

query: What value of viability, T/C has been recorded for this entry: Nc1ccn(C2OC(CO)C(O)C2(F)F)c(=O)n1 (stereo unspecified) + Cc1[nH]c2ccc(F)cc2c1-c1nc2c3cccnc3c3ncccc3c2[nH]1
result: 103%
